# System: 786-0 renal
# ASSAY_TEXT: NCI tumour cell line growth inhibition, 48 h
Please provide measured GI50 for the entries that follow.

Inquiry: // query GI50 value for entry "CCCCc1oc2ccccc2c1C(=O)c1cc(I)c(OCCN(CC)CC)c(I)c1"
Reply text: 1.64 µM

Inquiry: Which GI50 is reported for this compound? C=CC1=C(C)C(Cc2[nH]c(/C=c3\[nH]/c(=C/C4=NC(=O)C(C)/C4=C\C)c(C)c3CCC(=O)O)c(CCC(=O)OC)c2C)NC1=O (stereo not given)
Reply text: 22 µM

Inquiry: Please report the recorded GI50 for "COc1cc2c(cc1-c1c(C)noc1C)ncc1[nH]c(=O)n([C@H](C)c3ccccn3)c12" .
Reply text: 5.04 µM

Inquiry: Could you share which GI50 value was measured for CCCCCCCCCCC(CN(CC)CC)C(O)c1ccccc1 (stereo not given) ?
Reply text: 1.67 µM

Inquiry: So what does the record say about GI50 for "CN(C)CCC(=O)NCc1c2nc3ccccc3nc2n2ccccc12" ?
Reply text: 19 µM

====

Kindly state TGI for each of the entries shown.
# Tested on: T-47D breast
# ASSAY_TEXT: NCI tumour cell line growth inhibition, 48 h
Write down the numeric answer in µM and omit the unit.

Inquiry: Give the measured TGI of "C/C(=N\Nc1ncnc2ccccc12)c1ccccn1" .
Reply text: 20.7

Inquiry: Item "CO[C@H]1/C=C/C[C@H](C)[C@@H](C)S(=O)(=O)NC(=O)c2ccc3c(c2)N(C[C@@H]2CC[C@H]21)C[C@@]1(CCCc2cc(Cl)ccc21)CO3" has what recorded TGI?
Reply text: 10.8

Inquiry: Name the reported TGI value associated with the compound "O=C1c2c(O)cccc2C(C(=O)CCCC(=O)C2c3cccc(O)c3C(=O)c3c(O)cccc32)c2cccc(O)c21"
Reply text: 0.941

Inquiry: Using the record for "CCNC(=O)CCCCC(=O)c1c(C)[nH]c(/C=C2\N=C(c3ccc[nH]3)C=C2OC)c1C" , report its TGI.
Reply text: 6.43

Inquiry: Record request: TGI value, item CC(C(O)c1ccccc1)[N+](=O)[O-] (stereo unspecified)
Reply text: 59.5

Inquiry: I would be grateful if you could share the reported TGI for "O=S(=O)(Nc1nc(-c2cc(O)c(O)c(O)c2)cs1)c1ccc(Cl)cc1Cl" .
Reply text: 41.1

====

Provide the recorded TGI for the entries that follow.
# Tested on: HOP-62 NSCLC
# ASSAY_TEXT: NCI tumour cell line growth inhibition, 48 h

Inquiry: What TGI value was documented for this molecule, CC(Nc1cc(=O)n(C)c(=O)[nH]1)c1ccccc1 (stereo not given) ?
Reply text: > 100 µM

Inquiry: Need TGI of COc1cc(C(=O)OC2CC(C)=CC[C@@]3(C)CC[C@](O)(C(C)C)C23)ccc1O (stereo not given in full) , thanks.
Reply text: 32.4 µM

Inquiry: Looking for the measured TGI of "Oc1oc(-c2ccccc2)nc1/C=C1/C=NN=N1" , can you help?
Reply text: > 100 µM

Inquiry: Need TGI, item "NCCCn1c2c(c3ccc([N+](=O)[O-])cc3c1=O)C(=O)c1cc(Cl)ccc1-2"
Reply text: 0.123 µM

Inquiry: For "CC[C@@]1(O)C(=O)OCc2c1cc1n(c2=O)Cc2c-1nc1ccccc1c2/C=N\NC(=O)C(N)=O" , what is its reported TGI?
Reply text: > 45.1 µM

Inquiry: Entry "C=CC[C@@]1(C#N)C[C@H](C[C@]2(C#N)C[C@H](CCl)OC(C)(C)O2)OC(C)(C)O1" has what TGI?
Reply text: > 100 µM

Inquiry: What value of TGI has been reported for the following molecule? "O=C(OCc1c(-c2ccccc2)nn(-c2ccccc2)c1COC(=O)Oc1ccccc1)Oc1ccccc1"
Reply text: > 100 µM

Inquiry: State the recorded TGI for this entry: "Cc1cc(O)c(/C=N/C(=O)NN)c(=O)o1"
Reply text: > 100 µM

Inquiry: # get_value(readout='TGI', item= "OCCCCC#Cc1ccccc1C#Cc1cccs1" )
Reply text: 26.5 µM

Inquiry: Quick one: TGI of "CC(C)(CO)NC(=O)c1cccc(C(=O)NC(C)(C)CO)c1Br" ?
Reply text: > 100 µM

====

# Test system: MOLT-4 leukemia
# ASSAY_TEXT: NCI tumour cell line growth inhibition, 48 h; in the data active = GI50 below about 0.43 µM; inactive = the rest
Entry note: the call must match one of 1.0 = active, 0.0 = inactive

Inquiry: Fill in: this test's call for "CO[C@H]1/C=C/C[C@H](C)[C@@H](C)S(=O)(=O)NC(=O)c2ccc3c(c2)N(C[C@@H]2CC[C@H]21)C[C@@]1(CCCc2cc(Cl)ccc21)CO3" is ___
Reply text: 0.0

Inquiry: For this compound, state the assay outcome: "CSc1ccc(C(=O)/C=C/c2ccc(F)cc2)cc1"
Reply text: 0.0

Inquiry: Just curious, what result did CCCCCCCCCCC(CN(CC)CC)C(O)c1ccccc1 (centres undefined) get here?
Reply text: 0.0

Inquiry: Write down the call the test reported for this compound. Item: "COc1ccc(Cn2c3c(c4c(O)cccc42)C(=O)c2ccccc2-3)cc1"
Reply text: 0.0

Inquiry: What classification did "c1cc(-c2cnn3nc(N4CCOCC4)ccc23)nc(NC2CC2)n1" end up with in this test?
Reply text: 0.0

Inquiry: Recorded test outcome, item "O=C(Nc1ccc([N+](=O)[O-])cc1)c1cc2ccccc2cc1O"
Reply text: 0.0

Inquiry: Please indicate how the test categorized CC1(C)CC(O)CCCCCCOc2c(CN)cccc2NC(=O)c2nc(cnc2N)-c2ccc(cc2)S1(=O)=O (centres undefined) .
Reply text: 1.0

Inquiry: // return assay outcome for "NCCCn1c2c(c3ccc([N+](=O)[O-])cc3c1=O)C(=O)c1cc(Cl)ccc1-2"
Reply text: 1.0

Inquiry: What call does the record list for "CN(C)S(=O)(=O)c1cccc(-c2nc3sc4c(c3c(=O)[nH]2)CCCC4)c1" ?
Reply text: 0.0

====

Record form. Attribute: GI50. Fill in for each entry.
# Tested on: DU-145 prostate
# ASSAY_TEXT: NCI tumour cell line growth inhibition, 48 h

Inquiry: GI50 for "CSc1ccc(C(=O)/C=C/c2ccc(F)cc2)cc1" ?
Reply text: 54.8 µM

Inquiry: Look up GI50 for this compound: "CC(C)[C@H](O)C(=O)N[C@H]1Cc2ccc3c(c2)[C@]24C5=C(N=C(O5)[C@H](C(C)C)NC1=O)c1nc(Cl)c(o1)-c1c(Cl)[nH]c5cccc(c15)-c1cccc2c1N[C@H]4O3"
Reply text: < 0.001 µM

Inquiry: So what's the measured GI50 for this one? "C=C1C(=O)O[C@H]2[C@H]1CC/C(COC(=O)NCc1cccc(OC)c1)=C\CC[C@@]1(C)O[C@@H]21"
Reply text: 1.58 µM

Inquiry: Given C#CCOc1cccc(Nc2ncnc3c2ncn3C2CCN(C(=O)CCl)C2)c1 (centres undefined) , state its recorded GI50.
Reply text: 19.8 µM

Inquiry: Look at this compound and give its reported GI50. "CCCCc1oc2ccccc2c1C(=O)c1cc(I)c(OCCN(CC)CC)c(I)c1"
Reply text: 5.28 µM

Inquiry: Item "COc1cc(C(=O)/C=C/c2c(-c3cccs3)nc3ccccn23)cc(OC)c1OC" has what recorded GI50?
Reply text: 1.9 µM

Inquiry: # get_value(readout='GI50', item= "CCOC(=O)c1cn2ncnc(Oc3ccc(NC(=O)NCCN(CC)CC)c(Cl)c3)c2c1C" )
Reply text: 7.1 µM

Inquiry: Find the recorded GI50 belonging to "CCN1CCN(c2nc(C)cc(N(CCCNc3ccnc4cc(Cl)ccc34)Cc3ccco3)n2)CC1" and report it.
Reply text: 5.89 µM

Inquiry: Item under review: "NCCCn1c2c(c3ccc([N+](=O)[O-])cc3c1=O)C(=O)c1cc(Cl)ccc1-2" . Reported GI50?
Reply text: < 0.01 µM

Inquiry: Could you share which GI50 value was measured for CC1CCC(C#N)(NOC2=NCCN2)CC1 (centres undefined) ?
Reply text: 39.9 µM

Inquiry: What GI50 value was documented for this compound, "CN(C)CCC(=O)NCc1c2nc3ccccc3nc2n2ccccc12" ?
Reply text: 12.3 µM

Inquiry: Query (compound): "CN(C)CCN1C(=O)c2cccc3c(-c4ccc5ncn(C6CCCCC6)c5c4)ccc(c23)C1=O" ; field requested: GI50
Reply text: 3.14 µM

Inquiry: Consider the compound shown here: "Cc1[nH]ccc2cc3nc4ccccc4c3cc12" What is its recorded GI50?
Reply text: 2.18 µM

Inquiry: Bench note: what GI50 did "c1ccc([P+](CCC[P+](c2ccccc2)(c2ccccc2)c2ccccc2)(c2ccccc2)c2ccccc2)cc1" show?
Reply text: 19.9 µM

====

# Test system: U251 CNS
# ASSAY_TEXT: NCI tumour cell line growth inhibition, 48 h
Where a SMILES comes first, the peptide text is derived from it. Side-chain parts run from the residue outwards. The star is where a group is joined. Cbz = O=C(OCc1ccccc1)*; Boc = CC(C)(C)OC(=O)*
Give TGI for every item shown.

Inquiry: State its TGI on U251 CNS: "CN(Cc1ccccc1)c1nc(=[N+](C)C)ss1"
Reply text: > 100 µM

Inquiry: Fill in the recorded TGI for this compound, with U251 CNS as test system: "COc1cc2c(cc1-c1c(C)noc1C)ncc1[nH]c(=O)n([C@H](C)c3ccccn3)c12"
Reply text: > 100 µM

Inquiry: # get_value(readout= TGI, system= U251 CNS) for CC(C)CC(NC(=O)OCc1ccccc1)C(=O)NCCCCC(NC(=O)C(CCCCNC(=O)C(CC(C)C)NC(=O)OCc1ccccc1)NC(=O)C(CCCCNC(=O)C(CC(C)C)NC(=O)OCc1ccccc1)NC(=O)C(CCCCNC(=O)C(CC(C)C)NC(=O)OCc1ccccc1)NC(=O)OC(C)(C)C)C(=O)O (stereo not drawn) (Boc-K([Leu-Cbz])K([Leu-Cbz])K([Leu-Cbz])K([Leu-Cbz])-OH; configuration not given here)
Reply text: > 25 µM

Inquiry: Param readout = TGI; param system = U251 CNS; param query = "COc1cc(CCC(=O)NS(=O)(=O)c2ccccc2)cc(OC)c1OC" ; response: value
Reply text: > 100 µM

Inquiry: Fill in the recorded TGI for this compound, with U251 CNS as test system: CN(C(=O)C1CC1)C1C2CN3CCC(O2)C13 (stereo not drawn)
Reply text: > 100 µM

Inquiry: Can you look up TGI on U251 CNS for "CCOC(=O)c1cn2ncnc(Oc3ccc(NC(=O)NCCN(CC)CC)c(Cl)c3)c2c1C" ?
Reply text: 6.24 µM

Inquiry: Checklist item: TGI tested on U251 CNS, entry "C/C=C/COc1cc(NC(=S)c2ccoc2C)ccc1OC" , value?
Reply text: > 100 µM

Inquiry: Entry O=C(Nc1cc([N+](=O)[O-])cc([N+](=O)[O-])c1)OC1C2CCC1C1OC1C2 (stereo not drawn) , system U251 CNS: what TGI was measured?
Reply text: > 50 µM

Inquiry: Reported TGI for U251 CNS, given C#CCOc1cccc(Nc2ncnc3c2ncn3C2CCN(C(=O)CCl)C2)c1 (stereo not drawn) ?
Reply text: 35.1 µM

Inquiry: Request - read-out TGI | tested on U251 CNS | compound "N=C(N)Cn1cnc2ccccc21"
Reply text: > 100 µM

Inquiry: Give recorded TGI with U251 CNS for the following compound: "CC(C)=CCC[C@@H](C)C1=C(O)C(Nc2ccccc2F)=C(C)C(=O)C1=O"
Reply text: > 100 µM

Inquiry: Look up TGI with U251 CNS for this compound: "COc1ccc(Cn2c3c(c4c(O)cccc42)C(=O)c2ccccc2-3)cc1"
Reply text: 27.1 µM

Inquiry: Lab note: need TGI with U251 CNS for entry "C[C@@]1(CBr)C[C@@](C)(/C=C/Cl)[C@@H](Cl)C[C@H]1Cl" , please look it up.
Reply text: 27.9 µM

Inquiry: Notebook: pull reported TGI for U251 CNS, entry "CCc1c(-c2coc(CC/C(C)=C/c3ccccc3)n2)oc(OC)c(C)c1=O"
Reply text: > 53.9 µM

Inquiry: Give the reported TGI for N#CCCCCC12C3C(=O)N(c4ccccc4)C(=O)C3ON1O[C@@H]1C(=O)N(c3ccccc3)C(=O)[C@@H]12 (stereo partly drawn) (system: U251 CNS).
Reply text: > 100 µM

Inquiry: Observed TGI on U251 CNS for "COc1cc(OC)c(NC2=NCCO2)cc1Cl" , please.
Reply text: > 100 µM

Inquiry: Under U251 CNS: TGI value of CC(C(O)c1ccccc1)[N+](=O)[O-] (stereo not drawn) ?
Reply text: 38.4 µM

Inquiry: Request - read-out TGI | tested on U251 CNS | compound "CCOc1ccc(-n2c(=O)n3c(Nc4ccc(Cl)cc4)nc4c(c(=O)n(C)c(=O)n4C)n3c2=O)cc1"
Reply text: > 100 µM

Origin of measurements: PubChem BioAssay (NCI)
